- assayed target: GlcNAc(b1-3)Gal(b1-4)GlcNAc(b1-3)Gal(b1-4)GlcNAc(b1-2)Man(a1-3)[GlcNAc(b1-3)Gal(b1-4)GlcNAc(b1-3)Gal(b1-4)GlcNAc(b1-2)Man(a1-6)]Man(b1-4)GlcNAc(b1-4)GlcNAc
- assay overview: glycan array binding signal (z-score within array); higher = stronger binding
- reported conditions: glycan notation: IUPAC condensed, linker removed
Only a selection was taken, and the strongest signals are over-represented in it overall.
quantity: glycan array binding signal (z-score)
Give bare numbers.

binder	value measured
Si Bti9 1b-HA (Solanum lycopersicum) (protein) MFESRPRSVLSLGVFVILVYLSSVPLPVNSQCNRGCDLALASFYVWRGSNLTLISEMFSTSIADIVSYNNRDNIPNQDSVIAGTRINIPFRCDCLNDGEVLGHAFPYRVKSGDTYDLVARNYSDLTTAQWMMKFNSYPENNIPNTVNLSVVVNCSCGNSDVSKDFGLFVTYPVRAEDNLTSVASAANVSEDIIRRYNPAAVSILDIGQGIIYIPGRDRNGNFPPLPTSTDGLSGGAKAPLFFNPAFLYKVVELKLAGRSRTSGYPYDVPDYAGYPYDVPDYALEVLFQ	2.7
EPL1 (Trichoderma atroviride), A0PCX2 (protein) MQLSNLFKLALFTAAVSADTVSYDTGYDDASRSLTVVSCSDGTNGLITRYHWQTQGQIPRFPYIGGAQAVAGWNSPNCGTCWKLTYSGKTIYVLAIDHTAAGFNIGLDAMNALTNGNAVALGRVSATASQVAVSNCGL	0.862
XTP3-B-MRH1 (Homo sapiens), Q96DZ1 (protein) LLEPLFKQSSCSYRIESYWTYEVCHGKHIRQYHEEKETGQKINIHEYYLGNMLAKNLLFEKEREAEEKEKSNEIPTKNIEGQMTPYYPVGMGNGTPCSLKQNRPRSSTVMYICHPESKHEILSVAEVTTCEYEVVILTPLLCSHPKYRFRA	2.48
Gal-9-hFc (Mus musculus), O08573-2 (protein) MALFSAQSPYINPIIPFTGPIQGGLQEGLQVTLQGTTKSFAQRFVVNFQNSFNGNDIAFHFNPRFEEGGYVVCNTKQNGQWGPEERKMQMPFQKGMPFELCFLVQRSEFKVMVNKKFFVQYQHRVPYHLVDTIAVSGCLKLSFITFQTQNFRPAHQAPMAQTTIHMVHSTPGQMFSTPGIPPVVYPTPAYTIPFYTPIPNGLYPSKSIMISGNVLPDATRFHINLRCGGDIAFHLNPRFNENAVVRNTQINNSWGQEERSLLGRMPFSRGQSFSVWIICEGHCFKVAVNGQHMCEYYHRLKNLQDINTLEVAGDIQLTHVQT	0.436

// next entry
Exercise: Find the measured glycan array binding signal (z-score) of SUN4 (Saccharomyces cerevisiae), P53616 (protein) MGSSHHHHHHSSGLVPRGSHNGSIYGDLADFSGPYEKFEDGTIPCGQFPSGQGVIPISWLDEGGWSGVENTDTSTGGSCKEGSYCSYACQPGMSKTQWPSDQPSDGRSIGGLLCKDGYLYRSNTDTDYLCEWGVDAAYVVSELSNDVAICRTDYPGTENMVIPTYVQAGDSLPLTVVDQDTYYTWQGLKTSAQYYVNNAGISVEDACVWGSSSSGVGNWAPLNFGAGSSDGVAYLSLIPNPNNGNALNFNVKIVAADDSSTVNGECIYENGSFSGGSDGCTVSVTAGKAKFVLYN and report it.
Key: 0.121
